Entry source: PubChem BioAssay (NCI)

test system: MOLT-4 leukemia; experiment: NCI-60 one-dose screen, 48 h; conditions: 10 µM unless noted
This is part of a sample that, as a whole, favours compounds with a hit. Of some 83,000 tested, about 20% had one in any assay. Calls of active or inactive are those of the source. The calls were made as follows: active = growth percent below 10; inactive = the rest.
Choose one outcome from this list and give only that: y for active, n for inactive

compound	label-class
N#Cc1c(-c2cccc(Cl)c2Cl)cc(-c2c[nH]c3ccccc23)[nH]c1=O	n

Problem: Status in this test for CCN1C(=O)N(CC)C2NNC(Sc3c(C(=O)O)c4ccccc4n(C4CCCC4)c3=O)=NC21 (configuration not stated) ?
Solution: n

Problem: For COC(=O)/C=C/c1cccc2c1C(=O)NC(C)(c1cc3cc4ccccc4cc3oc1=O)N2 (configuration not stated) , what call appears in the results of this test?
Solution: n

----------
I'd appreciate it if you could supply growth values for the items below.
Test system: 786-0 renal
Assay: NCI-60 one-dose screen, 48 h (100 = growth as untreated, 0 = no growth, -100 = all killed)
Conditions: 10 µM unless noted
Procedure: Cells are grown in 96 well plates and exposed to the test compound for 48 hours. Compounds are tested at a single concentration, which is 10^-5 M for most compounds. The reported endpoint is percent growth (GI% or GIPRCNT), where numbers from 0 - 100% represent growth inhibition, and numbers from -100% - 0 represent cell death. For example, a value of 40 represents 60% growth inhibition. A value of 0 means no net growth occurred over the course of the experiment. […]
This is part of a sample that, as a whole, favours compounds with a hit. Of some 83,000 tested, about 20% had one in any assay.
Give bare numbers, in %.

// each listed compound needs a value for growth
1. CCOC(=O)C1=C(N)N(c2ccccc2)C2=C(C(=O)CC(C)(C)C2)C1c1ccc([N+](=O)[O-])cc1 (stereo not drawn)
2. C=C1CCC2C3(C)COC(c4cc(F)cc(F)c4)OC3CCC2(C)C1CC(O)C1=CCOC1=O (stereo not drawn)
3. O=C(NN1C(=O)/C(=C/C=C/c2ccc([N+](=O)[O-])o2)SC1=S)c1ccc(Cl)cc1
4. NS(=O)(=O)c1ccc(N=Nc2c(O)n(CC(=O)Nc3ccccc3Cl)c3ccccc23)cc1

Solution:
[93.7, 30.3, -82.3, 11.9]

Batch lookup, growth per entry.
1. CC1(C)CC[C@]2(C(=O)O)CC[C@]3(C)C(=CCC4[C@@]5(C)C[C@@H](O)[C@@H]6OC(c7ccccc7Br)OC[C@@]6(C)C5CC[C@]43C)C2C1 (stereo partly drawn)
2. O=C1CCCc2cc(OCC(=O)N3CCCCC3)ccc2N1
3. CNC(=O)c1cc(Oc2ccc3nc(NC(=O)Nc4cccc(OC(F)(F)F)c4)sc3c2)ccn1
4. CC(=O)Nc1ccc(-n2cnc3cc(-c4ccc(O)cc4)ccc32)cc1C(F)(F)F

Solution:
24.9
116
-50.7
20.3

----------
test system: MALME-3M melanoma; test: NCI-60 one-dose screen, 48 h (100 = growth as untreated, 0 = no growth, -100 = all killed); details: 10 µM unless noted
Compounds without any hit were thinned out: in the full panel of roughly 83,000, 20% have a hit.
Please go through the items and note down their growth.
Numbers only, in %.

compound	assayed-system	endpoint-label	result
S=C(Nc1ccccc1)Nc1ccc(OCc2nc3ccccc3[nH]2)cc1	MALME-3M melanoma	growth	51.6
COc1ccc(-c2ccnc(SCc3cc4ccccc4[nH]c3=O)n2)cc1OC	MALME-3M melanoma	growth	8.86
O=C(NN1C(=O)/C(=C/C=C/c2ccc([N+](=O)[O-])o2)SC1=S)c1cccc(O)c1	MALME-3M melanoma	growth	-99.2
COc1ccc([C@H](C)Nc2nc(Cl)nc3ccccc23)cc1	MALME-3M melanoma	growth	66.5
CSc1ccccc1NC(=O)c1ccc2nn(/C(C#N)=C/c3ccccn3)nc2c1	MALME-3M melanoma	growth	-89
Cc1ccc2c(N)c(C(=O)Nc3ccc(-c4ccccc4)cc3)sc2n1	MALME-3M melanoma	growth	65.5
Cn1cc(-c2cc(N)n3nc(-c4cn(C)c5ncccc45)cc3n2)c2cccnc21	MALME-3M melanoma	growth	97.3
C/C(=N\N=C1/C(=O)Nc2ccccc21)c1ccc2c(c1)Nc1ccccc1S2	MALME-3M melanoma	growth	35.5
CC1(C)CC[C@]2(C(=O)O)CC[C@]3(C)C(=CCC4[C@@]5(C)C[C@@H](O)[C@@H]6OC(c7ccc(F)cc7)OC[C@@]6(C)C5CC[C@]43C)C2C1 (stereo partly specified)	MALME-3M melanoma	growth	39
O=C(N/N=C/c1ccc(-c2ccc(O)cc2)s1)c1[nH]c2ccc(Br)cc2c1-c1ccccc1	MALME-3M melanoma	growth	-2.08

Hi there! I need growth for each item below, if you can.
1. C=C1CC[C@@H]2[C@]3(C)COC(c4cn(-c5ccccc5)nc4-c4ccccc4)O[C@@H]3CC[C@@]2(C)[C@@H]1C/C=C1/C(=O)OC[C@H]1O (stereo partly specified)
2. COc1c(F)ccc(C(=O)Nc2ccc3nc(NC(=O)C4CCCN(S(=O)(=O)C5CC5)C4)sc3c2)c1F (stereo unspecified)
3. COc1cc(-c2ccc(/C=N/NC(=O)c3[nH]c4ccc(Br)cc4c3-c3ccccc3)s2)cc(OC)c1OC

Solution:
1: -90.2; 2: 43.5; 3: 86.7

Batch: growth for all items listed.
1. COc1ccc(C(=O)/C=C/c2ccc(OC)c(OCc3ccccc3)c2)cc1OC
2. Nc1nc(-c2ccccc2)c(N=Nc2ccc([N+](=O)[O-])cc2Cl)s1
3. COCOc1ccc2c(=O)c(C)c(C(=O)N[C@@H](Cc3ccccc3)C(O)C(=O)NCCc3ccc(OC)cc3)oc2c1 (stereo partly specified)
4. C#C[C@]1(O)CC[C@H]2[C@@H]3CC=C4c5sc(-c6ccc([N+](=O)[O-])cc6)nc5CC[C@]4(C)[C@H]3CC[C@@]21C
5. NS(=O)(=O)c1ccc(-n2cc(-c3cccc(NC(=O)c4cc(N5CCOCC5)cc(C(F)(F)F)c4)c3)nn2)cc1
6. CC(C)CSc1nc(NCCc2c[nH]c3ccccc23)c(C#N)c(-c2ccc(Cl)cc2)n1
7. Cc1ccc(C2=NN(c3nc(-c4cc5ccccc5oc4=O)cs3)C(c3ccc(C)cc3)C2)cc1 (stereo unspecified)

Solution:
74.1
108
111
-28.9
54.1
81.9
91.6

Hello, I would appreciate it if you could give growth for each entry below.
1. CC(=O)OCC1OC(OC2C(COC(C)=O)OC(n3cc(COc4ccc5ccc(=O)oc5c4)nn3)C(OC(C)=O)C2OC(C)=O)C(OC(C)=O)C(OC(C)=O)C1OC(C)=O (stereo unspecified)
2. Cn1nc(C(F)(F)F)cc1-c1cc(Cl)c(COc2ccc(Cl)cc2)c(-c2ccc(Cl)c(C(F)(F)F)c2)c1O
3. COc1ccc2c(c1)c(-c1cc(N)n3nc(-c4cn(C)c5ccccc45)cc3n1)cn2C
4. COc1ccc(C(=O)/C=C/c2cccc3ccccc23)cc1S(N)(=O)=O
5. CCN(CC)c1ccc(/C=N/Nc2nc(-c3ccc(C)cc3)cs2)c(O)c1
6. O=C(/C=C/Nc1ccc2oc(=O)ccc2c1)c1cc2cc(Br)ccc2oc1=O
7. N=C1N=C(SCc2nc3ccccc3[nH]2)NC(=O)/C1=C/c1ccc(Cl)cc1
8. O=C(NN1C(=O)/C(=C/C=C/c2ccc([N+](=O)[O-])o2)SC1=S)c1ccc(Cl)cc1

Solution:
1: 101; 2: -52.4; 3: -76.5; 4: 30.1; 5: 105; 6: 95.2; 7: 96.4; 8: -96

Could you report growth for every entry in the following list?
1. COc1ccc(-c2nc(SC(C)C)nc(NCCc3c[nH]c4ccccc34)c2C#N)cc1
2. COc1ccc(NC(=O)[C@@H](N)Cc2ccccc2)cc1C(=O)Nc1cccc(C2CC(=O)c3c(cc(OC)c(OC)c3OC)O2)c1 (stereo partly specified)
3. N/C(=N\c1nc2ccccc2s1)NC(=O)Nc1c(Cl)cccc1Cl
4. Clc1cccc(-c2ccc(OCCCN3CCN(c4ccncc4)CC3)cc2)c1
5. CCCCOc1ccc(NC(=O)c2sc3nc(C)ccc3c2N)cc1
6. COc1ccc(Cc2nn(CC(=O)N/N=C/c3ccc(F)cc3)c(=O)c3c(C)noc23)cc1
7. Cc1ccc(-c2nc(C#N)c(S(=O)(=O)N3CCN(S(=O)(=O)c4ccccc4)CC3)o2)cc1
8. CC(=O)Nc1ccc(-n2cnc3ccc(-c4ccc(O)cc4)cc32)cc1

Solution:
1. 78.8
2. 66
3. 44
4. -87
5. 23.3
6. -0.917
7. -77.4
8. 50.3

----------
system: CAKI-1 renal; assay: NCI-60 one-dose screen, 48 h; details: 10 µM unless noted
Compounds without any hit were thinned out: in the full panel of roughly 83,000, 20% have a hit. Calls of active or inactive are those of the source. How the source made its calls: active means growth percent below 10; inactive means the rest.
Tick one outcome: active, inactive

Look over these answered cases.
compound	assayed-system	label-class
CCCSc1nc(NCCc2c[nH]c3ccccc23)c(C#N)c(-c2ccccc2)n1	CAKI-1 renal	inactive
CCOC(=O)C1=C(N)N(c2ccccc2)C2=C(C(=O)CC(C)(C)C2)C1c1ccc(N2CCOCC2)cc1 (centres undefined)	CAKI-1 renal	inactive
C=Cn1cc(C(=O)O)c(=O)c2cc(F)c(N3CCN(c4nccc(-c5nccs5)n4)CC3)cc21	CAKI-1 renal	active
Cc1occc1C(=O)NN1C(=O)/C(=C/C=C/c2ccc([N+](=O)[O-])o2)SC1=S	CAKI-1 renal	active
COc1cc(CNC(=O)/C=C/c2ccc3c(c2)OCO3)ccc1OCc1cn(-c2cccc(C(F)(F)F)c2)nn1	CAKI-1 renal	active

Problem: What call does the record list for "CCCSc1nc(NCCc2c[nH]c3ccccc23)c(C#N)c(-c2ccc(OC)cc2)n1" ?
Solution: inactive

Problem: What is the recorded call for this compound in the test? "COc1ccc(NC(=O)Nc2ccc(OCc3ccc(F)cc3)cc2)cc1"
Solution: inactive

Problem: Test call, this compound: "N#Cc1c(-c2cccc(O)c2O)cc(-c2ccc3ccccc3c2)[nH]c1=O"
Solution: inactive

Problem: Dear colleague, could you share the recorded outcome for "C(=C\c1cc(/C=C/c2ccccc2)c2ccccc2n1)/c1ccccc1" when you have a moment?
Solution: inactive
